Assignment: determine reported pKd for the given binders.
target-under-test: eTau2 (UniProt P10636)
procedure-summary: relative binding affinity, method not named; eTau 2
One number for each entry, as −log10 of the molar value.

humanized IPN002 variant VH4/Vk2 (antibody, V domains shown) VH: EVQLVESGGALVKPGGSLRLSCAASGFSFSKYGMSWVRQAPGKGLEWVATISSSGSRTYYPDSVKGRFTISRDNAKNTLYLQMNSLRAEDTAMYYCAISWDGAMDYWGQGTTVTVSS VL: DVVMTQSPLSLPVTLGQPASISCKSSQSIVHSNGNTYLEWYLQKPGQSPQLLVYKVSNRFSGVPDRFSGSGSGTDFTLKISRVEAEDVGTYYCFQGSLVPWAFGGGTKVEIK ... 9.35

Turning now to a further record.
Briefly, pKd measured for humanized IPN002 variant VH4/Vk4 (antibody, V domains shown) VH: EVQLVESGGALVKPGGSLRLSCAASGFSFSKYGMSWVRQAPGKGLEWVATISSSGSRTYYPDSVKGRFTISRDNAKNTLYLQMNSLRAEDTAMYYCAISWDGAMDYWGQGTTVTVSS VL: DVVMTQSPLSLPVTLGQPASISCKSSQSIVHSNGNTYLEWYLQKPGQSPQLLIYKVSNRFSGVPDRFSGSGSGTDFTLKISRVEAEDVGVYYCFQGSLVPWAFGGGTKVEIK : 9.25
